# key: entry, value: apparent KD of MS2 coat protein
test system: MS2 coat protein; assay: apparent KD of MS2 coat protein; designed switch direction (-1 OFF switch, 1 ON switch): -1; higher = weaker reporter binding; conditions: input ligand: none
Express the result in nM but write the number alone.

Solved entries (count: 2):
# Residue String, Test System, Value Observed
rows = [
    ("UAUGGUUAAGUCAGGAUAUGCUCAUAGAAGUCUGUGCAGAAGGGACAUGAGGAUCACCCAUGUAUGGUAGUGUU [Ex4 #61] (Eterna round: R97, puzzle: Brourd's mod of Exclusion 4)", "MS2 coat protein", 460),
    ("CCCAGUUAGGAAGGAUAUUGUACAUGAGGAUCACCCAUGUAAUAAAUGAGGAUCUCGGGUGUCUACAAGAAGGUCCGGAUAGGC [Ostracism 12 - Jieux - Exclusion NG 2] (Eterna round: R96, puzzle: Exclusion NG 2)", "MS2 coat protein", 46.4),
]

Next sequence, please.
For the sequence shown here, GACCUCCCUGUAAGGAUAUCCAUGCAUCAAAGCAAGGAGAAGGUACAUGAGGAUCACCCAUGUCACCCGCGUUA (Eterna round: R97, puzzle: Brourd's mod of Exclusion 4) , give the reported apparent KD of MS2 coat protein.
15.4
